Task for the reader: assign each of the following compounds its reported inhibition.
target: Histone deacetylase (Homo sapiens) (UniProt Q13547+O15379+Q9UBN7+Q92769+Q9UQL6+Q8WUI4+Q9BY41+Q96DB2+P56524+Q9UKV0+Q969S8); assay: Inhibition of HDAC in human HeLa cells at 50 uM by fluorescent activity assay; type: cell-based
Answers are plain numbers, in %.

Some entries whose results are on file:
> print(dat)
                           entry.smiles     readout  scale.unit  obs.value
1   O=C(CC1CCN(S(=O)(=O)c2ccccc2)CC1)NO  inhibition           %         68
2  O=C(CC1CCN(S(=O)(=O)Cc2ccccc2)CC1)NO  inhibition           %         22

Okay, here is my list. What is inhibition for each of these?
1. O=C(NO)C1CCN(S(=O)(=O)c2ccccc2)CC1
2. O=C(NO)C1CCN(C(=O)c2ccccc2)CC1
3. O=C(CCCN1CCN(S(=O)(=O)c2ccccc2)CC1)NO
4. O=C(CCCN1CCN(S(=O)(=O)Cc2ccccc2)CC1)NO
5. O=C(CN1CCN(C(=O)Cc2ccccc2)CC1)NO
6. O=C(CCN1CCN(S(=O)(=O)c2ccccc2)CC1)NO
7. O=C(NO)C1CCN(C(=O)Cc2ccccc2)CC1

Result:
50
16
50
19
19
44
65

Give inhibition for each listed item.
1. O=C(CN1CCN(S(=O)(=O)c2ccccc2)CC1)NO
2. O=C(CCCN1CCN(C(=O)c2ccccc2)CC1)NO
3. O=C(CCCC1CCN(S(=O)(=O)Cc2ccccc2)CC1)NO

Result:
1: 10; 2: 30; 3: 77

----------
target: Histone deacetylase (Homo sapiens) (UniProt Q13547+O15379+Q9UBN7+Q92769+Q9UQL6+Q8WUI4+Q9BY41+Q96DB2+P56524+Q9UKV0+Q969S8); conditions: HeLa, at 0.1 µM
Description: Inhibition of HDAC in human HeLa cells at 0.1 uM by fluorescent activity assay
READOUT: inhibition (%)
Give bare numbers, in %.

Check out these entries, answers already filled in.
> print(dat)
                              entry.smiles     readout  obs.value
1      O=C(CCCCC1CCN(C(=O)Nc2ccccc2)CC1)NO  inhibition         23
2   O=C(CCCC1CCN(S(=O)(=O)Cc2ccccc2)CC1)NO  inhibition         12
3       O=C(CCCCC1CCN(C(=O)c2ccccc2)CC1)NO  inhibition         12
4        O=C(CCCC1CCN(C(=O)c2ccccc2)CC1)NO  inhibition         11
5  O=C(CCCCN1CCN(S(=O)(=O)Cc2ccccc2)CC1)NO  inhibition          4
6         O=C(CCC1CCN(C(=O)c2ccccc2)CC1)NO  inhibition         11
7     O=C(CCCCCC1CCN(C(=O)Nc2ccccc2)CC1)NO  inhibition         16
8         O=C(CCN1CCN(C(=O)c2ccccc2)CC1)NO  inhibition          3

Required: inhibition, one value per compound below.
1. O=C(CCCC1CCN(C(=O)NCc2ccccc2)CC1)NO
2. O=C(CCCC1CCN(C(=O)Nc2ccccc2)CC1)NO
3. O=C(CCCCC1CCN(S(=O)(=O)c2ccccc2)CC1)NO
4. O=C(CCCC1CCN(C(=O)Cc2ccccc2)CC1)NO

Result:
1: 59; 2: 53; 3: 13; 4: 36

----------
biological target: Histone deacetylase (Homo sapiens) (UniProt Q13547+O15379+Q9UBN7+Q92769+Q9UQL6+Q8WUI4+Q9BY41+Q96DB2+P56524+Q9UKV0+Q969S8); conditions: HeLa, at 10 µM
Description: Inhibition of HDAC in human HeLa cells at 10 uM by fluorescent activity assay
Hi there, I'd appreciate the recorded inhibition for every entry that follows.
Answers are plain numbers, in %.

> print(dat)
                      entry.smiles     readout  scale.unit  obs.value
1  O=C(CC1CCN(C(=O)c2ccccc2)CC1)NO  inhibition           %          7

For the 2 molecules below, give their inhibition values.
1. O=C(CCN1CCN(S(=O)(=O)c2ccccc2)CC1)NO
2. O=C(CCCN1CCN(C(=O)Cc2ccccc2)CC1)NO

Result:
1. 14
2. 28

----------
molecular target: Histone deacetylase (Homo sapiens) (UniProt Q13547+O15379+Q9UBN7+Q92769+Q9UQL6+Q8WUI4+Q9BY41+Q96DB2+P56524+Q9UKV0+Q969S8); conditions: HeLa, at 1 µM
Description: Inhibition of HDAC in human HeLa cells at 1 uM by fluorescent activity assay
The following ranges of inhibition define the classes used here: low (below 30%), moderate (30% to below 50%), high (50% or more)

> print(dat)
                              entry.smiles  label.value
1      O=C(CCCCN1CCN(C(=O)Cc2ccccc2)CC1)NO     moderate
2  O=C(CCCCN1CCN(S(=O)(=O)Cc2ccccc2)CC1)NO          low

Now turn to the next molecule.
Q: Into which bin does this molecule go? "O=C(CCCCC1CCN(C(=O)Cc2ccccc2)CC1)NO"
Result: high

----------
biological target: Histone deacetylase (Homo sapiens) (UniProt Q13547+O15379+Q9UBN7+Q92769+Q9UQL6+Q8WUI4+Q9BY41+Q96DB2+P56524+Q9UKV0+Q969S8); test: Inhibition of HDAC in human HeLa cells at 50 uM by fluorescent activity assay; format: cell-based
Provide the reported inhibition of each item.
Numbers only, in %.

> print(dat)
                        entry.smiles  obs.value
1    O=C(CC1CCN(C(=O)c2ccccc2)CC1)NO         41
2  O=C(CCCC1CCN(C(=O)c2ccccc2)CC1)NO         77

// moving on: another record for inhibition
Q: // inhibition lookup, key: "O=C(CCCN1CCN(C(=O)Cc2ccccc2)CC1)NO"
Result: 52

----------
biological target: Histone deacetylase (Homo sapiens) (UniProt Q13547+O15379+Q9UBN7+Q92769+Q9UQL6+Q8WUI4+Q9BY41+Q96DB2+P56524+Q9UKV0+Q969S8); settings: HeLa, at 1 µM
READOUT: inhibition (%)
One number for each entry, in %.

# annotated cases, reported inhibition shown
> print(dat)
                             entry.smiles  obs.value
1       O=C(CCC1CCN(C(=O)Cc2ccccc2)CC1)NO         24
2        O=C(CCC1CCN(C(=O)c2ccccc2)CC1)NO         30
3      O=C(CCCCN1CCN(C(=O)c2ccccc2)CC1)NO          9
4  O=C(CCCCC1CCN(S(=O)(=O)c2ccccc2)CC1)NO         45
5  O=C(CCCCN1CCN(S(=O)(=O)c2ccccc2)CC1)NO         12

Need inhibition for each of these compounds.
1. O=C(CCCCCC1CCN(C(=O)NCc2ccccc2)CC1)NO
2. O=C(CCCCC1CCN(C(=O)Nc2ccccc2)CC1)NO
3. O=C(CCCC1CCN(C(=O)Nc2ccccc2)CC1)NO
4. O=C(CCCC1CCN(C(=O)Cc2ccccc2)CC1)NO
5. O=C(CCC1CCN(S(=O)(=O)c2ccccc2)CC1)NO
6. O=C(CCC1CCN(S(=O)(=O)Cc2ccccc2)CC1)NO
7. O=C(CCCCC1CCN(C(=O)NCc2ccccc2)CC1)NO
8. O=C(CCCCC1CCN(C(=O)c2ccccc2)CC1)NO

Result:
1: 62; 2: 63; 3: 81; 4: 72; 5: 33; 6: 33; 7: 49; 8: 44

For each of the compounds below, state inhibition.
1. O=C(CCCCCC1CCN(C(=O)Nc2ccccc2)CC1)NO
2. O=C(CCN1CCN(C(=O)c2ccccc2)CC1)NO
3. O=C(CCCC1CCN(C(=O)NCc2ccccc2)CC1)NO

Result:
[54, 3, 69]
